Molecular target: T1, rat alpha CGRP (SEQ ID NO: 82) (rat)
T1 construct: also called rat αCGRP; rat α-CGRP
T1 peptide: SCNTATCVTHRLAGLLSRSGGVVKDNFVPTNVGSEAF
Test: SPR, 37 C, mutein captured, CGRP analyte
measurement.type: Kd (nM)
Report the figure in nM without appending any unit label.

Identify the reported Kd for the following entry. lipocalin mutein SEQ ID NO: 4 (designed binder, biotinylated by NHS chemistry for capture in SPR) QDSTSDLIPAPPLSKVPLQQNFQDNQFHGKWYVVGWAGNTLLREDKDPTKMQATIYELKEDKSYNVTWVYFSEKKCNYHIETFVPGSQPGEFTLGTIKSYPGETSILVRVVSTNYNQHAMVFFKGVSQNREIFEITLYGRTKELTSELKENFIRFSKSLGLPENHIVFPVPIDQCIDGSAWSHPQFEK
5

Identify the reported Kd for the following entry. lipocalin mutein SEQ ID NO: 21 (designed binder, biotinylated by NHS chemistry for capture in SPR) QDSTSDLIPAPPLSKVPLQQNFQDNQFHGKWYVVGRAGNDALREDKDPEKMEATIYELKEDKSYNVTDVGFVQKKCMYVIHTFVPGSQPGEFTLGNIKSYPGVTSALIRVVNTNYNQHAMVFVKLVKQNRELFEITLYGRTKELTSELKENFIRFSKSLGLPENHIVFPVPIDQCIDGSAWSHPQFEK
0.053

Field: next binder
Identify the reported Kd for the following entry. lipocalin mutein SEQ ID NO: 8 (designed binder, biotinylated by NHS chemistry for capture in SPR) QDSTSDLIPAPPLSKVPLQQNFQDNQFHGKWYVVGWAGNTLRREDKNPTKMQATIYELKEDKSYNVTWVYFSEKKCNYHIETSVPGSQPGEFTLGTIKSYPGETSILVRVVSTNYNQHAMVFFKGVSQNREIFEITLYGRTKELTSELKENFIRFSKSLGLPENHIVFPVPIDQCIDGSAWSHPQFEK
1.14
